Can you tell me koff for the items I'm about to list?
biological target: T1, integrin αvβ3, purified from human placenta (human, UniProt P06756 31-1048; P05106 27-788); assay: SPR (BIAcore), purified Fab over immobilized αvβ3
T1 construct: mature; Native heterodimer, immobilized on ELISA plates or on the BIAcore chip; biotinylated in capture lift and capture ELISA screens; also called αvβ3 receptor; vitronectin receptor
T1 sequence (P06756 31-1048, form in doubt, chain 1 of 2): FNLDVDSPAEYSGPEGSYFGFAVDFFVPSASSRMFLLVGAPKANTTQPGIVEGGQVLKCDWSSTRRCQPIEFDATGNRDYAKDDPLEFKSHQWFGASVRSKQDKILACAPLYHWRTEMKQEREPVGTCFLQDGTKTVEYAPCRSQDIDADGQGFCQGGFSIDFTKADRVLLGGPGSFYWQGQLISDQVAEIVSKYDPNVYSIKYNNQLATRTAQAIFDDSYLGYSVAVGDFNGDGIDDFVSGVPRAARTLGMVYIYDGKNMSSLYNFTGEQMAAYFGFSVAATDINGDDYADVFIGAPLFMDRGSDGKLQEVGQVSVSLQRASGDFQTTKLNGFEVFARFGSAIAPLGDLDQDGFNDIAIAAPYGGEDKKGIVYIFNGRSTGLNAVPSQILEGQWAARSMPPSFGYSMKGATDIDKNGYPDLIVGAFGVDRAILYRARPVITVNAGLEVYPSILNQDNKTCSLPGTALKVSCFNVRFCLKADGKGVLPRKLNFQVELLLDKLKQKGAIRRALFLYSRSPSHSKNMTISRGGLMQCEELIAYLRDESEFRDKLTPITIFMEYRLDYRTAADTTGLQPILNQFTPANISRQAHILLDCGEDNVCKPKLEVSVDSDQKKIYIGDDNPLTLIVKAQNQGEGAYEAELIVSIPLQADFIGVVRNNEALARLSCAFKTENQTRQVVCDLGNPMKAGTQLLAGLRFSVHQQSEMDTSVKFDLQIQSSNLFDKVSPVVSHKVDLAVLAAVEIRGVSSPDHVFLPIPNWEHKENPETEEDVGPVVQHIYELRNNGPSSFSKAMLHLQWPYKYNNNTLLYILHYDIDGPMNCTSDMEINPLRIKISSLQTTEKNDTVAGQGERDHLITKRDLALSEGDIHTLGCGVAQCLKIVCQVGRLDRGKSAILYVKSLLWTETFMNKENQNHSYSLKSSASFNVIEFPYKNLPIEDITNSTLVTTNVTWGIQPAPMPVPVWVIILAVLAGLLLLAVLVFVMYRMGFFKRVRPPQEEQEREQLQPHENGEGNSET
T1 sequence (P05106 27-788, form in doubt, chain 2 of 2): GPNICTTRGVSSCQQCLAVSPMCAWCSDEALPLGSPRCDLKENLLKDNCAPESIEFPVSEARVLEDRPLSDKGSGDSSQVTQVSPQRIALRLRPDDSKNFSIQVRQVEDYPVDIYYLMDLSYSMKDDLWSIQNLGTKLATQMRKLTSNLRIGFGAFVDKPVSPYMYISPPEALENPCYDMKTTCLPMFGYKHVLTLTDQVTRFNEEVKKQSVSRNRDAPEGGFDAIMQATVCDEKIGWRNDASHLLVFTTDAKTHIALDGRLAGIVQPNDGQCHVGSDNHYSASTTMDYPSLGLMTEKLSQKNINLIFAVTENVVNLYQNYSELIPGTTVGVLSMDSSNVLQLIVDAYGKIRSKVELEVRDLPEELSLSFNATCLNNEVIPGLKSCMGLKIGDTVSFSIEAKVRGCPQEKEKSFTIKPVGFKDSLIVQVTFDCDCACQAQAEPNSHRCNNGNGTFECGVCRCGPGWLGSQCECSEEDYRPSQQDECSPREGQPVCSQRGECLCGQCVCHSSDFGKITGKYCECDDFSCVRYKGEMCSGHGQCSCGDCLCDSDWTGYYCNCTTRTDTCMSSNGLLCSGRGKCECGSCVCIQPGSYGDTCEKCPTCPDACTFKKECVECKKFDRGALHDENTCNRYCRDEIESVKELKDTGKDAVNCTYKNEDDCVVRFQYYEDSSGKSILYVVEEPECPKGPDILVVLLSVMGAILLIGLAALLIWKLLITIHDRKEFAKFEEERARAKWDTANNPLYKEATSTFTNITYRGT
Answers are plain numbers, in s⁻¹.

Below are worked cases with known answers.
| binder | unitTag | koff |
| --- | --- | --- |
| LM609 grafted antibody combinatorial clone 17 (Fab, V domains shown, Fab) VH: QVQLVESGGGVVQPGRSLRLSCAASGFTFSSYDMSWVRQAPGKGLEWVAKVSSGGGSTYYLDTVQGRFTISRDNSKNTLYLQMNSLRAEDTAVYYCARHNYGSFASWGQGTTVTVSS VL: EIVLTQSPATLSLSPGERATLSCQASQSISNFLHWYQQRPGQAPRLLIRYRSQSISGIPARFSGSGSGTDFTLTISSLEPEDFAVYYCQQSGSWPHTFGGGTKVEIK | s⁻¹ | 0.000138 |
| LM609 grafted antibody combinatorial clone C37 (Fab, V domains shown, Fab) VH: QVQLVESGGGVVQPGRSLRLSCAASGFTFSSYDMSWVRQAPGKGLEWVAKVSSGGGSTYYLDTVQGRFTISRDNSKNTLYLQMNSLRAEDTAVYYCARHNYGSFYEWGQGTTVTVSS VL: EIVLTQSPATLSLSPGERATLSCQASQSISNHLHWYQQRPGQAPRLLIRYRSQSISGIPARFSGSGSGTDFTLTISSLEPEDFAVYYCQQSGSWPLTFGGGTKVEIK | s⁻¹ | 0.000147 |
| LM609 grafted antibody combinatorial clone 56 (Fab, V domains shown, Fab) VH: QVQLVESGGGVVQPGRSLRLSCAASGFTFSSYDMSWVRQAPGKGLEWVAKVSSGGGSTYYPDTVQGRFTISRDNSKNTLYLQMNSLRAEDTAVYYCARHNYGSFASWGQGTTVTVSS VL: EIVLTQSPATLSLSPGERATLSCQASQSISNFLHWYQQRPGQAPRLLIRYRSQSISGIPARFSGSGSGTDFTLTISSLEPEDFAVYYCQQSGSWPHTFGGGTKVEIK | s⁻¹ | 0.000135 |
| LM609 grafted antibody combinatorial clone 6D1 (Fab, V domains shown, Fab) VH: QVQLVESGGGVVQPGRSLRLSCAASGFTFSSYDMSWVRQAPGKGLEWVAKVSSGGGSTYYPDTVQGRFTISRDNSKNTLYLQMNSLRAEDTAVYYCARHNYGSFYSWGQGTTVTVSS VL: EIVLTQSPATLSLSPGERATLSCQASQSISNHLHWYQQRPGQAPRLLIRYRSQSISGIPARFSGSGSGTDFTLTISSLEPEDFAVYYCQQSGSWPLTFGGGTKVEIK | s⁻¹ | 0.000158 |

As a next step, examine the binder that follows.
Q) Sample LM609 grafted antibody combinatorial clone C119 (Fab, V domains shown, Fab) VH: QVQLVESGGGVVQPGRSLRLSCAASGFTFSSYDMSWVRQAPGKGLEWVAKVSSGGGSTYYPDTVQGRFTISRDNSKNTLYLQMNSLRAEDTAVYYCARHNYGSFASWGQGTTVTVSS VL: EIVLTQSPATLSLSPGERATLSCQASQSISNHLHWYQQRPGQAPRLLIRYRSQSISGIPARFSGSGSGTDFTLTISSLEPEDFAVYYCQQSNSWPHTFGGGTKVEIK — what was its koff?
A) 0.000316
